biological target: SARS-CoV-2 Wuhan-Hu-1 RBD (SARS-CoV-2, Wuhan-Hu-1 (GenBank …, UniProt P0DTC2)); test: cell-based or functional assay
experimental_readout: neutralisation IC50, Wuhan-Hu-1 pseudovirus

Given JR325 (antibody, V domains shown) VH: QVQLQESGPGLVKPSQTLSLTCTVSGGSISSSDYYWSWIRQHPGKGLEWIGFIFYSGTTYYSPALKSRVSISVDTSKSQFSLKLHSVTAADTAVYYCARFSRNLGLNWFDPWGQGTLVTVSS VL: QFVLTQPASVSGSPGQSITISCTGTSSDIGSYDLVSWYQQYPGKAPKLIIYEVNKRPSGVSSRFSGSKSGNTASLTISGLLAEDEADYYCCSYAGPNTVLFGGGTILTV , respond with its neutralisation IC50, Wuhan-Hu-1 pseudovirus.
> 1 µg/mL
